biological target: human V1A receptor (Homo sapiens); construct: expressed in transfected cells; host or cells: CHO (CHO-hV1A cell line provided by Marc Thibonnier, Case Western Reserve University); test: Ligand binding assay, [3H]-AVP binding to CHO-hV1A membranes; conditions: read-out: vasopressin V1a receptors (V1a; Ki V1a)
Sequence (P37288 whole entry): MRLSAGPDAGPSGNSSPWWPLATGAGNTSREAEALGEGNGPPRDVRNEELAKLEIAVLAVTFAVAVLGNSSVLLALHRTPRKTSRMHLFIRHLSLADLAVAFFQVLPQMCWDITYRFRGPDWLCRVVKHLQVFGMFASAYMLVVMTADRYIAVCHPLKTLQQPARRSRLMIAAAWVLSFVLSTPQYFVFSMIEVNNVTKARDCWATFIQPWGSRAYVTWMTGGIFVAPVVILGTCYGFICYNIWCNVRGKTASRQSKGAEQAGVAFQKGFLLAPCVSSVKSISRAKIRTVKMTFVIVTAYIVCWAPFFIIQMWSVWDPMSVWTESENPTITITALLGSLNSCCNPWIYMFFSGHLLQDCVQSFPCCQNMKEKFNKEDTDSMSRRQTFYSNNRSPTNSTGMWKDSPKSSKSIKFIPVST
READOUT_LABEL: pKi
// scale note: pKi = -log10(conc_M); give the bare number

Inquiry: Recorded pKi for COc1cc(OC2CCN(C(C)=O)CC2)ccc1C(=O)N1CCC(N2C(=O)OCc3ccccc32)CC1 [Compound L-371257, reference compound] , please?
Reply text: 8.43

* * *

biological target: human Oxytocin receptor (Homo sapiens, UniProt P30559); construct: expressed in transfected cells; host or cells: CHO; assay: Oxytocin receptor binding assay (125I-OVT, SPA); conditions: read-out: oxytocin receptors (OT; Ki OT)
Sequence (P30559 whole entry): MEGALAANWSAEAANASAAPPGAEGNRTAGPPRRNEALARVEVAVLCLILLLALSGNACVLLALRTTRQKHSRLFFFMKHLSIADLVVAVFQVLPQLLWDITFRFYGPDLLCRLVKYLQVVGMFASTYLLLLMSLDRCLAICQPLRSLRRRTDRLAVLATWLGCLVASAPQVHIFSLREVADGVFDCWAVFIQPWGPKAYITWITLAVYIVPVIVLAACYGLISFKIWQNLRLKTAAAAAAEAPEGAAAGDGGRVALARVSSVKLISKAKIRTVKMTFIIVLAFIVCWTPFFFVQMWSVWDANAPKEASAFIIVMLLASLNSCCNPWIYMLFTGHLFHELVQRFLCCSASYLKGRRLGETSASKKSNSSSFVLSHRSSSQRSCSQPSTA
READOUT_LABEL: pKi
// scale note: pKi = -log10(conc_M); give the bare number

Inquiry: Recorded pKi for COC1CCN(Cc2nnc(C3CCN(c4ccccn4)CC3)n2Cc2ccccc2)CC1 , please?
Reply text: 5.52
